Entry source: patent US20200165324A1

- tested_target: stabilized BG505 SOSIP construct MD39 (HIV isolate BG505)
- experimental_protocol: competition ELISA on MD39 vs Self

binder: NC-Cow7 (antibody) VH: KVQLRESGPSLVKPFETLSLTCTGSGFSLSDKAAGWVRQAPGKAPEWLGSIDTGGNTGYNPGLKYRLSITKDNSKSQVSLSVSSMTSEDSATYYCTTVHQKAYKKVCPDDYSSNPDCVRLYGWSHCDCMRDSFGGWCRADGCSSTVEIGPYEWYVNAWGQGLLVTVSS VL: QAVLTQPSSVSGSLGQRVSITCSGSSSNVGNGYVSWYQLIPGSAPRSLIYGDTSRASGVPDRFSGSRSGNTATLTISSLQAEDEADYFCASPEDSSSNGVFGSGTTLTVL
competition value: 90

binder: NC-Cow2 (antibody) VH: KVQLRESGPSLVKPSQTLSLTCMVSGSSLSDKAVGWVRQAPGKALEWLGIISAGGNRGYNSGLRSRLTISKDNSKNEVSLRVRSVTTEDSATYFCGTVHQKTQRKPICPDGYSDDSTLRYYSRCSDRDCWRCTGTTYYDTCQCGTYTWIDTHELHVDAWGQGLLVTVSS VL: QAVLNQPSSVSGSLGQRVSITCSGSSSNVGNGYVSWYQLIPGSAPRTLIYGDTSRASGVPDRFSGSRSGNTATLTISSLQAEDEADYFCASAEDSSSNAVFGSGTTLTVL
competition value: 91

binder: NC-Cow4 (antibody) VH: KVQLRESGPSLVKPSQTLSLTCMVSGFSLNDEAVGWVRQAPGKALEWLGSIDAGGSTGYNPGLKSRLSISKDNSKNQVSLSVSSVTTEDSATYYCGTVHQRTQPKQTCPNGYSDDSALRYYSRCSDRDCWRCTGTTYYDTCQCSSYTYIHTYELYVDAWGQGLLVTVSS VL: QAVLTQPSSVSGSLGQRVSITCSGSSSNVGNGYVSWYQLIPGSAPRTLIYGDTSRASGVPDRFSGSRSGNTATLTISSLQAEDEADYFCASPEDSSSNAVFGSGTTLTVL
competition value: 84
